- experimental.system: human prostanoid EP2 receptor (Homo sapiens, UniProt P43116)
- Construct: expressed in transfected cells
- Sequence (P43116 whole entry): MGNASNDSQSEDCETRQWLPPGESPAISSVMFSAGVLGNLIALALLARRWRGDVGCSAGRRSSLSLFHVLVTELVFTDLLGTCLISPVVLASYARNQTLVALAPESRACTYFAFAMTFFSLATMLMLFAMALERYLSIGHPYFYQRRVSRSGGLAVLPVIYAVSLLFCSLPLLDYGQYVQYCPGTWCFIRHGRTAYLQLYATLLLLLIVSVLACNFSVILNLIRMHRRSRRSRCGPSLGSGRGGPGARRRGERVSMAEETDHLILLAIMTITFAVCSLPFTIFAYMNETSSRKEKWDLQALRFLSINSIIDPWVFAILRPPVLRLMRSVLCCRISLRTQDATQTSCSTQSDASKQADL
- assay.text: FLIPR Ca2+ signaling PG antagonist assay, EP2 stable cell line
- Format: cell-based
- condition.details: antagonist Kb vs standard agonist PGE2; HEK-293 EBNA cells with chimeric Gqs
- Procedure: The above compounds were tested for PG antagonist activity as follows using human recombinant prostanoid receptor (DP1, EP1-4, FP, IP and TP) stable cell lines: […] Ca^2+ signaling studies were performed using a FLIPR TETRA system (Molecular Devices, Sunnyvale, Calif., USA) in the 384-format. […] Cells were excited with LED (light emitting diode) excitation at 470-495 nm and emission was measured through an emission filter at 515-575 nm. Assay plates were read for 3.5 minutes using the FLIPR^TETRA. […]
Below, each entry is listed alongside its reported Kb.

Given the entry CCC(CC)COc1ccc(Cl)cc1Cn1nc(OCC(=O)O)cc1C , what Kb was observed with human prostanoid EP2 receptor (Homo sapiens, UniProt P43116)?
≥ 10 µM

Given the entry Cc1cc(OCC(=O)O)nn1Cc1cc(Cl)ccc1OCc1ccc(Cl)cc1 , what Kb was observed with human prostanoid EP2 receptor (Homo sapiens, UniProt P43116)?
0.34 µM

Given the entry Cc1cc(OCC(=O)O)nn1Cc1cc(Cl)ccc1OCC(C)C , what Kb was observed with human prostanoid EP2 receptor (Homo sapiens, UniProt P43116)?
≥ 10 µM

Given the entry CCC(CC)COc1ccc(Br)cc1Cn1nc(OCC(=O)O)cc1C , what Kb was observed with human prostanoid EP2 receptor (Homo sapiens, UniProt P43116)?
≥ 10 µM
